# Tested on: SARS-CoV-2
# ASSAY METHOD TEXT: microbe, parasite or virus in culture
# Assay type: cell-based
# APPLIED CONDITIONS: Severe acute respiratory syndrome coronavirus 2
VALUE KIND: IC50 (µM)
Number only, in µM; omit the unit.

**Query** Which IC50 reading was recorded for the molecule COc1c(O)cc2oc(-c3ccc(O)cc3)c(OC)c(=O)c2c1O [Compound 7, 5,7,4’-trihydroxy-3,6-dimethoxy flavone] ?
**Result** 664

---

# ASSAY METHOD TEXT: in vitro
# APPLIED CONDITIONS: African green monkey
Would you mind telling me the reported CC50 of each entry?
Reply with just the number (in mM).

**Query** Bench note: what CC50 did `CC[C@H](CC[C@@H](C)[C@H]1CC[C@H]2[C@@H]3CC=C4C[C@@H](O[C@@H]5O[C@H](CO)[C@@H](O)[C@H](O)[C@H]5O)CC[C@]4(C)[C@H]3CC[C@]12C)C(C)C` show?
**Result** 2.55

**Query** Same question, `COc1ccc(-c2coc3cc(O)ccc3c2=O)cc1` this time
**Result** 1.72

**Query** # repeat for COc1c(O)cc2oc(-c3ccc(O)cc3)c(OC)c(=O)c2c1O [Compound 7, 5,7,4’-trihydroxy-3,6-dimethoxy flavone]
**Result** 1.07
